- test-protocol: Antiproliferative activity against human PIG1 cells assessed as cell growth inhibition incubated for 72 hrs by CCK8 assay
- Type: toxicity, cell-based
Listed below: log10 IC50 at 72 h values for each entry.
Response schema: value (number) is log10 of IC50 at 72 h in units of µM.

# compound, measurement-label, assay-result
rows = [
    ("CCCNCCCOc1ccccc1C(=O)CCCc1ccccc1", "log10 IC50 at 72 h", 0.23),
    ("CC(C)(C)CNCCCOc1ccc2ccccc2c1C(=O)CCCc1ccccc1", "log10 IC50 at 72 h", 0.60),
    ("Cc1cncc(COc2ccc3ccccc3c2C(=O)CCCc2ccccc2)c1", "log10 IC50 at 72 h", 1.46),
    ("CCCOCC(=O)COc1ccccc1C(=O)CCc1ccccc1", "log10 IC50 at 72 h", 1.75),
    ("CCCNCCCOc1c(C(=O)CCCc2ccccc2)ccc2ccccc12", "log10 IC50 at 72 h", 1.16),
]

As a next step, examine the compound that follows.
Record CCCNCC(O)COc1ccccc1C(=O)CCCc1ccccc1 (stereo unspecified) . Reported log10 IC50 at 72 h: 1.52

====

- test-protocol: Inhibition of homologous recombination in human CRMM-1 cells at 10 uM incubated for 12 hrs by real-time PCR analysis relative to control
- Type: functional
Note to self: class labels come from recorded inhibition at 10 µM, ranges listed here: interval 1 (below 40%), interval 2 (40% to below 60%), interval 3 (60% or more)

Consider the worked cases shown below.
# compound, assigned-class
rows = [
    ("CCCNCC(O)COc1ccccc1C(O)CCc1ccccc1 (centres undefined)", "interval 1"),
    ("CCCNCC(O)COc1ccccc1C(=O)CCc1ccccc1 (centres undefined)", "interval 2"),
    ("CCCCNCCCOc1ccccc1C(=O)CCCc1ccccc1", "interval 1"),
    ("CCCCCCCNCCCOc1ccccc1C(=O)CCCc1ccccc1", "interval 3"),
    ("CCCNCC(O)COc1ccc(C(=O)CCc2ccccc2)cc1 (centres undefined)", "interval 1"),
]

Req: Returns: class label. Input: CCCCCCCNCC(O)COc1ccccc1C(=O)CCc1ccccc1 (centres undefined)
Resp: interval 2

Req: Returns: class label. Input: `CC(C)(C)C(=O)NCCCOc1ccc2ccccc2c1C(=O)CCCc1ccccc1`
Resp: interval 2

Req: Returns: class label. Input: `O=C(CCCc1ccccc1)c1c(OCCCN2CCOCC2)ccc2ccccc12`
Resp: interval 3

Req: Returns: class label. Input: CCCCCC(O)COc1ccccc1C(=O)CCc1ccccc1 (centres undefined)
Resp: interval 2

====

- test-protocol: Antiproliferative activity against human HL7702 cells assessed as cell growth inhibition incubated for 72 hrs by CCK8 assay
- Type: toxicity, cell-based
- details: HL7702 (L02) cells
Note to self: class labels come from recorded IC50 at 72 h, ranges listed here: lo: < 20 µM; med: ≥ 20 µM and < 60 µM; hi: ≥ 60 µM

Consider the worked cases shown below.
# molecule, assigned-class
data = [
    ("CCCNCC(O)COc1ccc(C(=O)CCc2ccccc2)cc1 (centres undefined)", "med"),
    ("C=CC(=O)NCCCOc1ccc2ccccc2c1C(=O)CCCc1ccccc1", "hi"),
]

Turning now to a further record.
Req: Returns: class label. Input: `C#CCNCCCOc1ccc2ccccc2c1C(=O)CCCc1ccccc1`
Resp: med
